protocolNotes: Body weight / toxicity of a single intraperitoneal injection in HCT-116 colon tumor-bearing nude mice
conditionsUsed: Day 2; single IP injection (QD×1); D1 and D2 400 mg/kg, D3 350 mg/kg, D4 300 mg/kg; Mean±SEM
Exercise: state measured Average weight of the animals for each of the compounds provided.
Enter your answer as a number in g; do not include the unit.

Item under review: CCCCOC(=O)Nc1ccn(C2OC(COC(=O)CCCC(=O)OC[C@H]3O[C@@H](n4ccc(NC(=O)OCCCC)nc4=O)C(F)(F)[C@@H]3OC(=O)OCCCC)C(OC(=O)OCCCC)C2(F)F)c(=O)n1 (stereo in doubt) [Compound D1] . Reported Average weight of the animals? 17.45

Item under review: CCCCOC(=O)Nc1ccn(C2OC(COC(=O)CCC(=O)OC[C@H]3O[C@@H](n4ccc(NC(=O)OCc5ccccc5)nc4=O)C(F)(F)[C@@H]3O)C(O)C2(F)F)c(=O)n1 (stereo in doubt) [Compound D4] . Reported Average weight of the animals? 18.48

Item under review: O=C(CCCC(=O)OC[C@H]1O[C@@H](n2ccc(NC(=O)OCc3ccccc3)nc2=O)C(F)(F)[C@@H]1O)OC[C@H]1O[C@@H](n2ccc(NC(=O)OCc3ccccc3)nc2=O)C(F)(F)[C@@H]1O [Compound D3] . Reported Average weight of the animals? 17.70

Item under review: CCCCOC(=O)Nc1ccn([C@H]2O[C@@H](COC(=O)CCC(=O)OC[C@H]3O[C@@H](n4ccc(NC(=O)OCCCC)nc4=O)C(F)(F)[C@@H]3O)[C@H](O)C2(F)F)c(=O)n1 (stereo in doubt) [Compound D2] . Reported Average weight of the animals? 18.17

* * *

protocolNotes: Body weight / toxicity of a single intraperitoneal injection in HCT-116 colon tumor-bearing nude mice
conditionsUsed: Day 0; single IP injection (QD×1); D1 and D2 400 mg/kg, D3 350 mg/kg, D4 300 mg/kg
measuredQuantity: Average rate of weight change of the animals (%)
Enter your answer as a number in %; do not include the unit.

Item under review: CCCCOC(=O)Nc1ccn(C2OC(COC(=O)CCCC(=O)OC[C@H]3O[C@@H](n4ccc(NC(=O)OCCCC)nc4=O)C(F)(F)[C@@H]3OC(=O)OCCCC)C(OC(=O)OCCCC)C2(F)F)c(=O)n1 (stereo in doubt) [Compound D1] . Reported Average rate of weight change of the animals? 0.00

Item under review: CCCCOC(=O)Nc1ccn([C@H]2O[C@@H](COC(=O)CCC(=O)OC[C@H]3O[C@@H](n4ccc(NC(=O)OCCCC)nc4=O)C(F)(F)[C@@H]3O)[C@H](O)C2(F)F)c(=O)n1 (stereo in doubt) [Compound D2] . Reported Average rate of weight change of the animals? 0.00

Item under review: O=C(CCCC(=O)OC[C@H]1O[C@@H](n2ccc(NC(=O)OCc3ccccc3)nc2=O)C(F)(F)[C@@H]1O)OC[C@H]1O[C@@H](n2ccc(NC(=O)OCc3ccccc3)nc2=O)C(F)(F)[C@@H]1O . Reported Average rate of weight change of the animals? 0.00

Item under review: CCCCOC(=O)Nc1ccn(C2OC(COC(=O)CCC(=O)OC[C@H]3O[C@@H](n4ccc(NC(=O)OCc5ccccc5)nc4=O)C(F)(F)[C@@H]3O)C(O)C2(F)F)c(=O)n1 (stereo in doubt) . Reported Average rate of weight change of the animals? 0.00

* * *

protocolNotes: Body weight / toxicity of a single intraperitoneal injection in HCT-116 colon tumor-bearing nude mice
conditionsUsed: Day 14; single IP injection (QD×1); D1 and D2 400 mg/kg, D3 350 mg/kg, D4 300 mg/kg
measuredQuantity: Average rate of weight change of the animals (%)
Enter your answer as a number in %; do not include the unit.

Item under review: CCCCOC(=O)Nc1ccn(C2OC(COC(=O)CCCC(=O)OC[C@H]3O[C@@H](n4ccc(NC(=O)OCCCC)nc4=O)C(F)(F)[C@@H]3OC(=O)OCCCC)C(OC(=O)OCCCC)C2(F)F)c(=O)n1 (stereo in doubt) [Compound D1] . Reported Average rate of weight change of the animals? 3.29

Item under review: O=C(CCCC(=O)OC[C@H]1O[C@@H](n2ccc(NC(=O)OCc3ccccc3)nc2=O)C(F)(F)[C@@H]1O)OC[C@H]1O[C@@H](n2ccc(NC(=O)OCc3ccccc3)nc2=O)C(F)(F)[C@@H]1O . Reported Average rate of weight change of the animals? 7.12

Item under review: CCCCOC(=O)Nc1ccn([C@H]2O[C@@H](COC(=O)CCC(=O)OC[C@H]3O[C@@H](n4ccc(NC(=O)OCCCC)nc4=O)C(F)(F)[C@@H]3O)[C@H](O)C2(F)F)c(=O)n1 (stereo in doubt) [Compound D2] . Reported Average rate of weight change of the animals? 4.87

Item under review: CCCCOC(=O)Nc1ccn(C2OC(COC(=O)CCC(=O)OC[C@H]3O[C@@H](n4ccc(NC(=O)OCc5ccccc5)nc4=O)C(F)(F)[C@@H]3O)C(O)C2(F)F)c(=O)n1 (stereo in doubt) . Reported Average rate of weight change of the animals? 3.72

* * *

Exercise: state measured Average weight of the animals for each of the compounds provided.
protocolNotes: Body weight / toxicity of a single intraperitoneal injection in HCT-116 colon tumor-bearing nude mice
conditionsUsed: Day 25; single IP injection (QD×1); D1 and D2 400 mg/kg, D3 350 mg/kg, D4 300 mg/kg; Mean±SEM
Enter your answer as a number in g; do not include the unit.

Item under review: CCCCOC(=O)Nc1ccn([C@H]2O[C@@H](COC(=O)CCC(=O)OC[C@H]3O[C@@H](n4ccc(NC(=O)OCCCC)nc4=O)C(F)(F)[C@@H]3O)[C@H](O)C2(F)F)c(=O)n1 (stereo in doubt) [Compound D2] . Reported Average weight of the animals? 20.88

Item under review: O=C(CCCC(=O)OC[C@H]1O[C@@H](n2ccc(NC(=O)OCc3ccccc3)nc2=O)C(F)(F)[C@@H]1O)OC[C@H]1O[C@@H](n2ccc(NC(=O)OCc3ccccc3)nc2=O)C(F)(F)[C@@H]1O . Reported Average weight of the animals? 22.50

Item under review: CCCCOC(=O)Nc1ccn(C2OC(COC(=O)CCC(=O)OC[C@H]3O[C@@H](n4ccc(NC(=O)OCc5ccccc5)nc4=O)C(F)(F)[C@@H]3O)C(O)C2(F)F)c(=O)n1 (stereo in doubt) . Reported Average weight of the animals? 22.30

Item under review: CCCCOC(=O)Nc1ccn(C2OC(COC(=O)CCCC(=O)OC[C@H]3O[C@@H](n4ccc(NC(=O)OCCCC)nc4=O)C(F)(F)[C@@H]3OC(=O)OCCCC)C(OC(=O)OCCCC)C2(F)F)c(=O)n1 (stereo in doubt) [Compound D1] . Reported Average weight of the animals? 23.20

* * *

System: HCT-116 human colon cancer cells
protocolNotes: Colony formation inhibition test on HCT-116 human colon cancer cells
Format: cell-based
conditionsUsed: Homo sapiens, HCT-116; 50 nM; 72 h treatment, then 7-10 days; read-out: % inhibition (colony formation inhibition rate)
measuredQuantity: inhibition at 0.05 µM (%)
Enter your answer as a number in %; do not include the unit.

Item under review: CCCCOC(=O)Nc1ccn([C@H]2O[C@@H](COC(=O)CCC(=O)OC[C@H]3O[C@@H](n4ccc(NC(=O)OCCCC)nc4=O)C(F)(F)[C@@H]3O)[C@H](O)C2(F)F)c(=O)n1 (stereo in doubt) [Compound D2] . Reported inhibition at 0.05 µM? 4.7

Item under review: CCCCOC(=O)Nc1ccn(C2OC(COC(=O)CCC(=O)OC[C@H]3O[C@@H](n4ccc(NC(=O)OCc5ccccc5)nc4=O)C(F)(F)[C@@H]3O)C(O)C2(F)F)c(=O)n1 (stereo in doubt) . Reported inhibition at 0.05 µM? 8.2

Item under review: CCCCOC(=O)Nc1ccn(C2OC(COC(=O)CCCC(=O)OC[C@H]3O[C@@H](n4ccc(NC(=O)OCCCC)nc4=O)C(F)(F)[C@@H]3OC(=O)OCCCC)C(OC(=O)OCCCC)C2(F)F)c(=O)n1 (stereo in doubt) [Compound D1] . Reported inhibition at 0.05 µM? 3.58

Item under review: O=C(CCCC(=O)OC[C@H]1O[C@@H](n2ccc(NC(=O)OCc3ccccc3)nc2=O)C(F)(F)[C@@H]1O)OC[C@H]1O[C@@H](n2ccc(NC(=O)OCc3ccccc3)nc2=O)C(F)(F)[C@@H]1O . Reported inhibition at 0.05 µM? 1.66

* * *

System: HCT-116 human colon cancer xenografts
protocolNotes: Tumor growth inhibition of HCT-116 human colon cancer xenografts in nude mice
Type: in vivo, Balb/c nude mice
conditionsUsed: Day 18; single IP injection (QD×1); D1 and D2 400 mg/kg, D3 350 mg/kg, D4 300 mg/kg; Mean±SEM
Marks after values point to notes of the source that are not given here.
Exercise: state measured Tumor volume of HCT-116 human colon cancer xenografts for each of the molecules provided.

State its Tumor volume of HCT-116 human colon cancer xenografts on HCT-116 human colon cancer xenografts: O=C(CCCC(=O)OC[C@H]1O[C@@H](n2ccc(NC(=O)OCc3ccccc3)nc2=O)C(F)(F)[C@@H]1O)OC[C@H]1O[C@@H](n2ccc(NC(=O)OCc3ccccc3)nc2=O)C(F)(F)[C@@H]1O 120.40 ± 23.44** mm^3

State its Tumor volume of HCT-116 human colon cancer xenografts on HCT-116 human colon cancer xenografts: CCCCOC(=O)Nc1ccn(C2OC(COC(=O)CCC(=O)OC[C@H]3O[C@@H](n4ccc(NC(=O)OCc5ccccc5)nc4=O)C(F)(F)[C@@H]3O)C(O)C2(F)F)c(=O)n1 (stereo in doubt) 228.58 ± 76.92** mm^3

State its Tumor volume of HCT-116 human colon cancer xenografts on HCT-116 human colon cancer xenografts: CCCCOC(=O)Nc1ccn(C2OC(COC(=O)CCCC(=O)OC[C@H]3O[C@@H](n4ccc(NC(=O)OCCCC)nc4=O)C(F)(F)[C@@H]3OC(=O)OCCCC)C(OC(=O)OCCCC)C2(F)F)c(=O)n1 (stereo in doubt) [Compound D1] 647.07 ± 503.28** mm^3

State its Tumor volume of HCT-116 human colon cancer xenografts on HCT-116 human colon cancer xenografts: CCCCOC(=O)Nc1ccn([C@H]2O[C@@H](COC(=O)CCC(=O)OC[C@H]3O[C@@H](n4ccc(NC(=O)OCCCC)nc4=O)C(F)(F)[C@@H]3O)[C@H](O)C2(F)F)c(=O)n1 (stereo in doubt) [Compound D2] 262.10 ± 111.14** mm^3

Each recorded value in this set is attributed to patent US10351586B2.
